target: HCV Core 134-171-TT peptide (ALRZ-9 peptide) (HCV-1); assay: SPR, captured mAb;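 note: Anti-HCV Core mAbs from hybridoma supernatants held on a rabbit anti-mouse IgG CM5 surface, peptide flowed over 3 min then 4 min dissociation, duplicate concentrations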
Can you tell me kon for the items I'm about to list?
The figure you give is taken to be in M⁻¹ s⁻¹; do not add the unit.

Q: Item under review: HCV 208B-395 (antibody, V domains shown) VH: QVQLQQSGAGLAKPGASVKMSCKASGYTFTANKMHWTKQRPGQGLEWIGYIDPSSGYTQYNHKIQDKATLTADTSSSTAYMQLSSLTFEDSAVYYCTNFAYWGQGTLVTVSA VL: DIVLTQSPATLSVTPGDRVSLSCRASQRIYNYLHWYQQKSHESPRLLIKYASQSISGIPSRFSGSGSGTDFILTINSVETEDFGMYFCQQSNSWPLTFGAGTKLELRR . Reported kon?
Ans: 1.3e+06

Q: One more binder: HCV 208A-352 (antibody, V domains shown) VH: QGQMQQSGAELVKPGASVKLSCKTSGFTFSSSFISWLKQKPGQSLEWIAWIYAGTGNTNYNQKFTDKAQLTVDTSSSTAYMQFSSLTTEDSAIYYCAISGTGFTYWGQGTLVTVSA VL: DVLMAQTPLSLPVTLGDQASISCRSSQSLVHSNGNTYLEWFLQKPGQSPKLLIYNVSNRFSGVPDRFSGSGSGTDFTLKISRVEAEDLGVYYCFQGSHVPLTFGSGTKLEIKR
Ans: 100000

Q: One more binder: HCV 208A-133 (antibody, V domains shown) VH: QLQQSGPVLVGPGASVMISCKTSGYTFTENAMHWVEQSHGKSLEWIGGVNPNNGDTIFNQKFKGKATLTVDKSSSTAFMEFRSLTSEESTVYYCVRRELDFFDYWGQGTSVTVSS VL: DIVLTQSPASLAVSLGQRATISCRASQSVSTSRYSYMHWYQQKPGQPPKLLIKYASNLESGVPARFSGSGSGTDFTLNIHPVAEEDTATYYCQHSWEFPFTFGSGTKLEIKR
Ans: 1.2e+06
